tested on: A498; experiment: minimum viability across doses, drug + dasatinib, relative to DMSO (fraction); higher = less growth inhibition; conditions: treatment: drug + dasatinib (fixed dose, not stated); 5 days
This listing pairs molecules with measured minimum viability across doses.
measured_metric: minimum viability across doses

# molecule, assay_value
data = [
    ("CCn1nnc2c(N3CCOCC3)nc(-c3ccc(NC(=O)Nc4ccc(C(=O)N5CCN(C)CC5)cc4)cc3)nc21 [PKI-402] + Cc1nc(Nc2ncc(C(=O)Nc3c(C)cccc3Cl)s2)cc(N2CCN(CCO)CC2)n1", 0.148),
    ("Cn1cc(-c2ccc3nnc(C(F)(F)c4ccc5ncccc5c4)n3n2)cn1 + Cc1nc(Nc2ncc(C(=O)Nc3c(C)cccc3Cl)s2)cc(N2CCN(CCO)CC2)n1", 0.854),
    ("CN[C@@H]1C[C@H]2O[C@@](C)([C@@H]1OC)n1c3ccccc3c3c4c(c5c6ccccc6n2c5c31)C(=O)NC4 [Staurosporine] + Cc1nc(Nc2ncc(C(=O)Nc3c(C)cccc3Cl)s2)cc(N2CCN(CCO)CC2)n1", 0.0115),
    ("O=C1NC(=O)C(c2ccccc2[N+](=O)[O-])=C1Nc1ccc(O)c(Cl)c1 + Cc1nc(Nc2ncc(C(=O)Nc3c(C)cccc3Cl)s2)cc(N2CCN(CCO)CC2)n1", 0.789),
    ("S=C(NCc1ccc2c(c1)OCO2)N1CCN(c2ncnc3c2oc2ccccc23)CC1 [Amuvatinib (MP-470)] + Cc1nc(Nc2ncc(C(=O)Nc3c(C)cccc3Cl)s2)cc(N2CCN(CCO)CC2)n1", 0.245),
    ("COc1cc2nccc(Oc3ccc(NC(=O)C4(C(=O)Nc5ccc(F)cc5)CC4)cc3)c2cc1OC [XL-184 free base (Cabozantinib)] + Cc1nc(Nc2ncc(C(=O)Nc3c(C)cccc3Cl)s2)cc(N2CCN(CCO)CC2)n1", 0.442),
    ("CNC(=O)c1nn(C)c2c1C(C)(C)Cc1cnc(Nc3ccc(N4CCN(C)CC4)cc3)nc1-2 + Cc1nc(Nc2ncc(C(=O)Nc3c(C)cccc3Cl)s2)cc(N2CCN(CCO)CC2)n1", 0.0243),
    ("CN1CCN(C2CCN(C(=O)Nc3cc(Oc4ccc(NC(=O)C5(C(=O)Nc6ccc(F)cc6)CC5)c(F)c4)ccn3)CC2)CC1 [Golvatinib (E7050)] + Cc1nc(Nc2ncc(C(=O)Nc3c(C)cccc3Cl)s2)cc(N2CCN(CCO)CC2)n1", 0.335),
    ("O=C1NC(=O)/C(=C/c2ccc3nccc(-c4ccncc4)c3c2)S1 + Cc1nc(Nc2ncc(C(=O)Nc3c(C)cccc3Cl)s2)cc(N2CCN(CCO)CC2)n1", 0.138),
]
